# experimental_protocol: in vitro
# run_conditions: human, plasma
observed_property: fraction unbound
Answers are plain numbers.

Identify measured fraction unbound corresponding to CCc1nc2ncc(Cl)cn2c1C(=O)NCc1ccc(-c2nc3n(n2)CCN(S(=O)(=O)C(F)(F)F)C3)cc1 [Compound 2] 0.0117

---

# experimental_protocol: physchem
# Format: physicochemical
# run_conditions: pH 7, aqueous buffer, thermodynamic from solid
observed_property: solubility thermodynamic (µM)
One number for each entry, in µM.

Identify measured solubility thermodynamic corresponding to CCc1nc2ncc(C)cn2c1C(=O)NCc1ccc(-c2nc3n(n2)CCN(S(=O)(=O)C(F)(F)F)C3)c(F)c1 1.62

---

For each record, write down the corresponding Glu/Gal: Glu.
# experimental_protocol: Mitochondrial toxicity (Glu/Gal) assay
# Assay type: cell-based
# run_conditions: glucose medium

Worked set:
- structure_smiles_string: "CCc1nc2ncc(Cl)cn2c1C(=O)NCc1ccc(-c2nc3n(n2)CCN(S(=O)(=O)C(F)(F)F)C3)cc1"
  observed_property: "Glu/Gal: Glu"
  readout_value: "> 100"
- structure_smiles_string: "CCc1nc2ncc(C)cn2c1C(=O)NCc1ccc(-c2nc3n(n2)CCN(S(=O)(=O)C(F)(F)F)C3)c(F)c1"
  observed_property: "Glu/Gal: Glu"
  readout_value: "> 200"
- structure_smiles_string: "CCc1nc2ccc(C)cn2c1C(=O)NCc1ccc(-c2cn3c(n2)CN(S(=O)(=O)C(F)(F)F)CC3)cc1"
  observed_property: "Glu/Gal: Glu"
  readout_value: "> 200"

Kindly consider the entry below.
Identify measured Glu/Gal: Glu corresponding to CCc1nc2ncc(C)cn2c1C(=O)NCc1ccc(-c2cc3n(n2)CCN(S(=O)(=O)C(F)(F)F)C3)c(F)c1 > 25

---

# Tested on: MDCK
# experimental_protocol: MDCK permeability / efflux
# run_conditions: A to B with inhibitor
observed_property: MDCK AB+inh
Give bare numbers.

Worked set:
- molecule: "CCc1nc2ncc(C)cn2c1C(=O)NCc1ccc(-c2cc3n(n2)CCN(S(=O)(=O)C(F)(F)F)C3)c(F)c1 [Compound 82]"
  observed_property: "MDCK AB+inh"
  readout_value: 16.2
- molecule: "CCc1nc2ccc(C)cn2c1C(=O)NCc1ccc(-c2cn3c(n2)CN(S(=O)(=O)C(F)(F)F)CC3)cc1 [Compound 79]"
  observed_property: "MDCK AB+inh"
  readout_value: 42.7
- molecule: "CCc1nc2ncc(Cl)cn2c1C(=O)NCc1ccc(-c2nc3n(n2)CCN(S(=O)(=O)C(F)(F)F)C3)cc1 [Compound 2]"
  observed_property: "MDCK AB+inh"
  readout_value: 32.5

Identify measured MDCK AB+inh corresponding to CCc1nc2ncc(C)cn2c1C(=O)NCc1ccc(-c2nc3n(n2)CCN(S(=O)(=O)C(F)(F)F)C3)c(F)c1 [Compound 7] 21.4

---

For each record, write down the corresponding solubility.
# experimental_protocol: physchem
# run_conditions: fessif

- structure_smiles_string: "CCc1nc2ncc(Cl)cn2c1C(=O)NCc1ccc(-c2nc3n(n2)CCN(S(=O)(=O)C(F)(F)F)C3)cc1"
  solubility: "24.4 µM"
- structure_smiles_string: "CCc1nc2ncc(C)cn2c1C(=O)NCc1ccc(-c2cc3n(n2)CCN(S(=O)(=O)C(F)(F)F)C3)c(F)c1"
  solubility: "8.8 µM"

Kindly consider the entry below.
Identify measured solubility corresponding to CCc1nc2ccc(C)cn2c1C(=O)NCc1ccc(-c2cn3c(n2)CN(S(=O)(=O)C(F)(F)F)CC3)cc1 29.3 µM

---

# experimental_protocol: LM Clint (microsomal stability), human
# Assay type: in vitro ADME
# run_conditions: h (human) liver microsomes; read-out: LM Clint
For each record, write down the corresponding microsomal CLint.
Write the numeric value and append its unit.

- structure_smiles_string: "CCc1nc2ncc(C)cn2c1C(=O)NCc1ccc(-c2cc3n(n2)CCN(S(=O)(=O)C(F)(F)F)C3)c(F)c1"
  microsomal CLint: "231 µL/min/mg"
- structure_smiles_string: "CCc1nc2ncc(Cl)cn2c1C(=O)NCc1ccc(-c2nc3n(n2)CCN(S(=O)(=O)C(F)(F)F)C3)cc1"
  microsomal CLint: "9.3 µL/min/mg"

Identify measured microsomal CLint corresponding to CCc1nc2ncc(C)cn2c1C(=O)NCc1ccc(-c2nc3n(n2)CCN(S(=O)(=O)C(F)(F)F)C3)c(F)c1 22.6 µL/min/mg

---

# experimental_protocol: Chemical stability testing in DMSO, ACN/H2O, ACN/0.1N HCl, ACN/0.1N NaOH (% by LCMS)
# Format: physicochemical
# run_conditions: 48 h, 30 μM
observed_property: chemical stability (% by LCMS) (%)
Give bare numbers, in %.

Worked set:
- compound: "CCc1nc2ncc(C)cn2c1C(=O)NCc1ccc(-c2nc3n(n2)CCN(S(=O)(=O)N2CCCC2)C3)cc1 [Compound 47]"
  observed_property: "chemical stability (% by LCMS)"
  units_text: "%"
  readout_value: 99
- compound: "O=C(NCc1ccc(-c2nc3n(n2)CCN(S(=O)(=O)C(F)(F)F)C3)c(F)c1)c1c(C(F)(F)F)nc2ccccn12 [Compound 6]"
  observed_property: "chemical stability (% by LCMS)"
  units_text: "%"
  readout_value: 100
- compound: "CCc1nc2ncc(C)cn2c1C(=O)NCc1ccc(-c2cc3n(n2)CCN(S(=O)(=O)C(F)(F)F)C3)c(F)c1 [Compound 82]"
  observed_property: "chemical stability (% by LCMS)"
  units_text: "%"
  readout_value: 100
- compound: "CCc1nc2ncc(C)cn2c1C(=O)NCc1ccc(-c2cc3n(n2)CCN(S(=O)(=O)C(F)(F)F)C3)cc1 [Compound 44]"
  observed_property: "chemical stability (% by LCMS)"
  units_text: "%"
  readout_value: 100
- compound: "CCc1nc2ccc(C)cn2c1C(=O)NCc1ccc(-c2nc3n(n2)CCN(S(=O)(=O)C(F)(F)F)C3)cc1 [Compound 24]"
  observed_property: "chemical stability (% by LCMS)"
  units_text: "%"
  readout_value: 100

Items follow; give chemical stability (% by LCMS) for each.
1. CCc1nc2ccc(C)cn2c1C(=O)NCc1ccc(-c2cc3n(n2)CCN(S(=O)(=O)C(F)(F)F)C3)cc1 [Compound 81]
2. CCc1nc2ccc(C)cn2c1C(=O)NCc1ccc(-c2cn3c(n2)CN(S(=O)(=O)C(F)(F)F)CC3)cc1 [Compound 79]
3. Cc1cnc2nc(C3CC3)c(C(=O)NCc3ccc(-c4nc5n(n4)CCN(S(=O)(=O)C(F)(F)F)C5)cc3)n2c1 [Compound 42]

1: 100; 2: 100; 3: 100

---

# experimental_target: hERG (Homo sapiens, UniProt Q12809)
# Sequence (Q12809 whole entry): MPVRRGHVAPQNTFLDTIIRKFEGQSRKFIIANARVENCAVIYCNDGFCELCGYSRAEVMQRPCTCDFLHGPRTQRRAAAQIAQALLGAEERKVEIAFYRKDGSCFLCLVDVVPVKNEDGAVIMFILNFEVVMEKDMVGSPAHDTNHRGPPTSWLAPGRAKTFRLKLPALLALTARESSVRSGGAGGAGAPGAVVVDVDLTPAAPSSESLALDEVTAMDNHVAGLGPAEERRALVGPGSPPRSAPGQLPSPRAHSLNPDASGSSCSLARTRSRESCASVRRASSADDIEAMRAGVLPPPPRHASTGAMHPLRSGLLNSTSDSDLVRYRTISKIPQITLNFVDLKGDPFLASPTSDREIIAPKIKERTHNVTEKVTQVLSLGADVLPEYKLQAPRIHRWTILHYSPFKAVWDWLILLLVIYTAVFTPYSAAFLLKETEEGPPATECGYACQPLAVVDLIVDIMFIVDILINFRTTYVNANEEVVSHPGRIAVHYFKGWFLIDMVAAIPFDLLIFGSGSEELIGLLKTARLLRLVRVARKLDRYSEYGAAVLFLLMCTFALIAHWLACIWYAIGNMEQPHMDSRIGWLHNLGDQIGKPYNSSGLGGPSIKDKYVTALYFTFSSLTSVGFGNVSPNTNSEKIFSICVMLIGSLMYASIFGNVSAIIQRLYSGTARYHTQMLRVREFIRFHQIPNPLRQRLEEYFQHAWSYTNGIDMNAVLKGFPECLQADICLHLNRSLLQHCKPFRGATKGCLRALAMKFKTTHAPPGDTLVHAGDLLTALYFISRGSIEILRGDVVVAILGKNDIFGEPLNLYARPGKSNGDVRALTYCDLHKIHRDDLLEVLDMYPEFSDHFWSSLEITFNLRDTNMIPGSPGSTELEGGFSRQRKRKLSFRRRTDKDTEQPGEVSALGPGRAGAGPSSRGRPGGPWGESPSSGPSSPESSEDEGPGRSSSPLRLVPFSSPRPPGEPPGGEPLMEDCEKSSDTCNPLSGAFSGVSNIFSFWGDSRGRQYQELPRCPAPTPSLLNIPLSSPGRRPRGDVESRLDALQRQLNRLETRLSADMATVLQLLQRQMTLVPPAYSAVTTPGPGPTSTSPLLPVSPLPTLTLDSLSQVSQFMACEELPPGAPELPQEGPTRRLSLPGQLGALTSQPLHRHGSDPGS
# experimental_protocol: sync hERG
# Type: cell-based
For each record, write down the corresponding IC50.

Worked set:
- structure_smiles_string: "CCc1nc2ncc(C)cn2c1C(=O)NCc1ccc(-c2nc3n(n2)CCN(S(=O)(=O)C(F)(F)F)C3)c(F)c1"
  readout_value: "> 30 µM"
- structure_smiles_string: "CCc1nc2ncc(C)cn2c1C(=O)NCc1ccc(-c2cc3n(n2)CCN(S(=O)(=O)C(F)(F)F)C3)c(F)c1"
  readout_value: "20.4 µM"
- structure_smiles_string: "CCc1nc2ncc(Cl)cn2c1C(=O)NCc1ccc(-c2nc3n(n2)CCN(S(=O)(=O)C(F)(F)F)C3)cc1"
  readout_value: "> 30 µM"

Kindly consider the entry below.
Identify measured IC50 corresponding to CCc1nc2ccc(C)cn2c1C(=O)NCc1ccc(-c2cn3c(n2)CN(S(=O)(=O)C(F)(F)F)CC3)cc1 30.2 µM

---

# experimental_protocol: LM Clint (microsomal stability), mouse
# Format: in vitro ADME
# run_conditions: m (mouse) liver microsomes; read-out: LM Clint
observed_property: microsomal CLint (µL/min/mg)
Answers are plain numbers, in µL/min/mg.

Identify measured microsomal CLint corresponding to CCc1nc2ncc(C)cn2c1C(=O)NCc1ccc(-c2cc3n(n2)CCN(S(=O)(=O)C(F)(F)F)C3)c(F)c1 28

---

# experimental_protocol: in vitro
# run_conditions: mouse, hepatocytes
observed_property: half-life (min)
Answers are plain numbers, in min.

Identify measured half-life corresponding to CCc1nc2ccc(C)cn2c1C(=O)NCc1ccc(-c2cn3c(n2)CN(S(=O)(=O)C(F)(F)F)CC3)cc1 43.3

---

# experimental_target: 2C19 (Homo sapiens, UniProt P33261)
# Sequence (P33261 whole entry): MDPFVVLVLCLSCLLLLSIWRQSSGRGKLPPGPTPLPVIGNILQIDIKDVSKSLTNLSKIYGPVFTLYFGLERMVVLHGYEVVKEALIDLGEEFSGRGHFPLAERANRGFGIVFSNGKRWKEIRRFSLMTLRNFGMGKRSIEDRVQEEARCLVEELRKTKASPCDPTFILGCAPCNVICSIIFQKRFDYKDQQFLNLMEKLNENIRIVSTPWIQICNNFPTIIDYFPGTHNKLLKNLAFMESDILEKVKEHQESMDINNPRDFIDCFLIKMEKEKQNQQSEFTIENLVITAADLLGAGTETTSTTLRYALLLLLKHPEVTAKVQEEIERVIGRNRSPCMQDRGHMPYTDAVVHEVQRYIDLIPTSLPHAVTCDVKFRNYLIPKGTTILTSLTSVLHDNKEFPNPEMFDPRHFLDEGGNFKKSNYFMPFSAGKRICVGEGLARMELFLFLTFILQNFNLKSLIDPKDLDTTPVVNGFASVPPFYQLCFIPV
# experimental_protocol: CYP cocktail inhibition, 2C19
# Format: in vitro ADME
# run_conditions: read-out: CYPS IC50 2C19
observed_property: pIC50
Give bare numbers, as −log10 of the molar value.

Identify measured pIC50 corresponding to CCc1nc2ccc(C)cn2c1C(=O)NCc1ccc(-c2cn3c(n2)CN(S(=O)(=O)C(F)(F)F)CC3)cc1 [Compound 79] 4.84

Cited source: patent US20240182495A1
